Target: UniProtKB P35462
Sequence (P35462 whole entry): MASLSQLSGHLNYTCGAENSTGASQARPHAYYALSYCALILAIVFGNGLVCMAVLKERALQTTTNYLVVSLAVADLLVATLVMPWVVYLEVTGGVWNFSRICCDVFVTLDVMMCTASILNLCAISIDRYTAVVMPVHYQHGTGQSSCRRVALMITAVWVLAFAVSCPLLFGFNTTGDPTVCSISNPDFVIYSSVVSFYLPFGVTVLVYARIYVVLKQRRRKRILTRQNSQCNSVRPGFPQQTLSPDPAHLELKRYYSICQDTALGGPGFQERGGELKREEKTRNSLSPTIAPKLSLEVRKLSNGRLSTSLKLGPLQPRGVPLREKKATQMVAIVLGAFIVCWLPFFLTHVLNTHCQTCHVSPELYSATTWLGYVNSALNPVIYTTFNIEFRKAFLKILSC
Experiment: Antagonist activity at human dopamine D3 receptor expressed in CHO cells assessed as inhibition of quinpirole stimulated mitogenesis
What EC50 was measured for each of the following?
Give bare numbers, in µM.

Smiles Code	EC50, µM
Cc1[nH]c2ccccc2c1CN1CCC(O)(c2ccc(Cl)cc2)CC1	0.0202
COC1(c2ccc(Cl)cc2)CCN(Cc2c[nH]c3ccccc23)CC1	0.248
CCCCCCn1cc(CN2CCC(O)(c3ccc(Cl)cc3)CC2)c2ccccc21	0.661
Cn1cc(CN2CCC(O)(c3ccc(Cl)cc3)CC2)c2ccccc21	0.0986
OC1(c2ccc(Cl)cc2)CCN(Cc2c[nH]c3ccccc23)CC1	0.0904
CC1(c2ccc(Cl)cc2)CCN(Cc2c[nH]c3ccccc23)CC1	0.347

Batch request: EC50 per item, same order as input.
1. OC1(c2ccc(Cl)c(Cl)c2)CCN(Cc2c[nH]c3ccccc23)CC1
2. OC1(c2cccc(Cl)c2Cl)CCN(Cc2c[nH]c3ccccc23)CC1

result:
1. 0.0415
2. 0.232

---

Target: D(2) dopamine receptor (Homo sapiens, UniProt P14416)
Sequence (P14416 whole entry): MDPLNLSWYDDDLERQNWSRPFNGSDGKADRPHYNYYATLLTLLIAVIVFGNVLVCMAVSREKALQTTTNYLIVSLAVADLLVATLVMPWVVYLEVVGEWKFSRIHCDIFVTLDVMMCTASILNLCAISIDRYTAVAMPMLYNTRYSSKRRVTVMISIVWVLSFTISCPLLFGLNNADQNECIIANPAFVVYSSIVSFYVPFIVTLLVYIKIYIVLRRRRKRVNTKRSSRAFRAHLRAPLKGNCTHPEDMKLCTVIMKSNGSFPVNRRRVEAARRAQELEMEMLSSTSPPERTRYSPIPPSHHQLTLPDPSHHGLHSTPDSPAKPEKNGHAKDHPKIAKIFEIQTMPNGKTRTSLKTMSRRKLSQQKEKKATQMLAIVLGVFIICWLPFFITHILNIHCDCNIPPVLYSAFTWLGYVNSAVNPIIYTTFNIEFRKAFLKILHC
Experiment: Antagonist activity at human dopamine D2 receptor expressed in CHO cells assessed as inhibition of quinpirole stimulated mitogenesis
pEC50: −log10 of the molar value.
Lab note: anything with pEC50 at or over 7 counts as 1 (yes); the rest go in 0 (no).

Sample answers from the record:
Molecule	Test Target	Assigned Label
CCCCCCn1cc(CN2CCC(O)(c3ccc(Cl)cc3)CC2)c2ccccc21	D(2) dopamine receptor (Homo sapiens, UniProt P14416)	0 (no)
CC1(c2ccc(Cl)cc2)CCN(Cc2c[nH]c3ccccc23)CC1	D(2) dopamine receptor (Homo sapiens, UniProt P14416)	0 (no)
OC1(c2ccccc2Cl)CCN(Cc2c[nH]c3ccccc23)CC1	D(2) dopamine receptor (Homo sapiens, UniProt P14416)	0 (no)
COC1(c2ccc(Cl)cc2)CCN(Cc2c[nH]c3ccccc23)CC1	D(2) dopamine receptor (Homo sapiens, UniProt P14416)	1 (yes)
OC1(c2ccc(Cl)c(Cl)c2)CCN(Cc2c[nH]c3ccccc23)CC1	D(2) dopamine receptor (Homo sapiens, UniProt P14416)	1 (yes)

query: API: above_or_equal(metric=pEC50, cutoff=7) for item Cc1[nH]c2ccccc2c1CN1CCC(O)(c2ccc(Cl)cc2)CC1
result: 1 (yes)

query: Is the recorded value of pEC50 equal to or greater than 7 for this molecule? CCCCCCOc1ccc(C2(O)CCN(Cc3c[nH]c4ccccc34)CC2)cc1
result: 0 (no)

query: Does pEC50 meet or surpass 7 for OC1(c2cccc(Cl)c2Cl)CCN(Cc2c[nH]c3ccccc23)CC1 ?
result: 1 (yes)

query: hey, is pEC50 for this one >= 7? OC1(c2ccc(Cl)cc2)CCCN(Cc2c[nH]c3ccccc23)CC1 (stereo not given)
result: 0 (no)

query: Record CC(=O)NC1(c2ccc(Cl)cc2)CCN(Cc2c[nH]c3ccccc23)CC1 ; criterion: pEC50 no lower than 7. Met?
result: 1 (yes)

query: Determine whether measured pEC50 meets or exceeds 7 for N#CC1(c2ccc(Cl)cc2)CCN(Cc2c[nH]c3ccccc23)CC1
result: 0 (no)

query: Given Cn1cc(CN2CCC(O)(c3ccc(Cl)cc3)CC2)c2ccccc21 , state whether its pEC50 is at least 7.
result: 1 (yes)
